Experiment: pharmacokinetic study in mice (serum and brain, non-compartmental analysis)
Type: in vivo, mouse
Conditions: male, CD-1, mouse, ip, serum, 25 mg/kg i.p., read-out: λz (converted)
VALUE KIND: k el (s⁻¹)
API: value field is a number in s⁻¹; no unit string.

Prompt line: Given CC(=O)N[C@@H](C(=O)N1CCN(c2cccc(OC(F)(F)F)c2)CC1)c1ccccc1 [(R)-32] , state its recorded k el.
Response line: 0.00015

###

Experiment: pharmacokinetic study in mice (serum and brain, non-compartmental analysis)
Type: in vivo, mouse
Settings: male, CD-1, mouse, ip, serum, 50 mg/kg i.p., read-out: t1/2 λz
VALUE KIND: half-life (h)
API: value field is a number in h; no unit string.

Prompt line: Given CC(=O)N[C@@H](C(=O)N1CCN(c2cccc(OC(F)(F)F)c2)CC1)c1ccccc1 [(R)-32] , state its recorded half-life.
Response line: 1.07

###

Assay: pharmacokinetic study in mice (serum and brain, non-compartmental analysis)
Format: in vivo, mouse
Details: male, CD-1, mouse, ip, serum, 25 mg/kg i.p.
VALUE KIND: Tmax

Prompt line: Given CC(=O)N[C@@H](C(=O)N1CCN(c2cccc(OC(F)(F)F)c2)CC1)c1ccccc1 [(R)-32] , state its recorded Tmax.
Response line: 15 min

###

Assay: pharmacokinetic study in mice (serum and brain, non-compartmental analysis)
Assay type: in vivo, mouse
Conditions: male, CD-1, mouse, ip, serum, 25 mg/kg i.p., read-out: t1/2 λz
VALUE KIND: half-life (h)
API: value field is a number in h; no unit string.

Prompt line: Given CC(=O)N[C@@H](C(=O)N1CCN(c2cccc(OC(F)(F)F)c2)CC1)c1ccccc1 [(R)-32] , state its recorded half-life.
Response line: 1.29

###

Experiment: pharmacokinetic study in mice (serum and brain, non-compartmental analysis)
Format: in vivo, mouse
Settings: male, CD-1, mouse, po, brain, 25 mg/kg p.o., read-out: t1/2 λz
VALUE KIND: half-life (h)
API: value field is a number in h; no unit string.

Prompt line: Given CC(=O)N[C@@H](C(=O)N1CCN(c2cccc(OC(F)(F)F)c2)CC1)c1ccccc1 [(R)-32] , state its recorded half-life.
Response line: 2.21

###

Experiment: pharmacokinetic study in mice (serum and brain, non-compartmental analysis)
Type: in vivo, mouse
Details: male, CD-1, mouse, ip, serum, 50 mg/kg i.p.
VALUE KIND: MRT (min)
API: value field is a number in min; no unit string.

Prompt line: Given CC(=O)N[C@@H](C(=O)N1CCN(c2cccc(OC(F)(F)F)c2)CC1)c1ccccc1 [(R)-32] , state its recorded MRT.
Response line: 33.6

###

Assay: hepatotoxicity, HepG2 cell viability
Assay type: cell-based, human
Conditions: human, HepG2 hepatoma cells; 1 μM, 72 h of incubation (Figure 11)
VALUE KIND: viability at 72 h, 1 µM

Prompt line: Given COc1cccc2c1C(=O)c1c(O)c3c(c(O)c1C2=O)C[C@@](O)(C(=O)CO)C[C@@H]3O[C@H]1C[C@H](N)[C@H](O)[C@H](C)O1 [doxorubicin, reference compound] , state its recorded viability at 72 h, 1 µM.
Response line: ~20%

###

Experiment: pharmacokinetic study in mice (serum and brain, non-compartmental analysis)
Assay type: in vivo, mouse
Conditions: male, CD-1, mouse, ip, brain, 25 mg/kg i.p.
VALUE KIND: MRT (min)
API: value field is a number in min; no unit string.

Prompt line: Given CC(=O)N[C@@H](C(=O)N1CCN(c2cccc(OC(F)(F)F)c2)CC1)c1ccccc1 [(R)-32] , state its recorded MRT.
Response line: 45.5
